Item-by-item account of IC50
System: pSTAT1(2)-luciferase reporter in HeLa cells triggered with human OSM
Experiment: JAK-STAT signalling assay
Format: cell-based
Conditions: Homo sapiens, HeLa, HeLa cells, pSTAT1(2)-luciferase reporter, human OSM 33 ng/mL; read-out: JAK-STAT IC50

Check out these entries, answers already filled in.
STRUCTURE: Cc1c(OCC#N)cccc1N(C)c1cc2c(cn1)ncn2C
IC50: > 1000 nM
//
STRUCTURE: CCc1cc(C2=CCN(C(C)=O)CC2)ccc1N(C)c1cc2c(cn1)ncn2C
IC50: 1 to 500 nM
//
STRUCTURE: CCc1cc(CN2CCN(S(C)(=O)=O)CC2)ccc1N(C)c1cc2c(cn1)ncn2C
IC50: 501 to 1000 nM
//
STRUCTURE: CN(c1cc2c(cn1)ncn2C)c1ccc(C#N)cc1F
IC50: > 1000 nM
//
STRUCTURE: CCc1cc(C2=CCN(S(=O)(=O)C(C)C)CC2)ccc1N(C)c1cc2c(cn1)ncn2C
IC50: 1 to 500 nM
//
STRUCTURE: Cc1ccc(OCC#N)cc1N(C)c1cc2c(cn1)ncn2C
IC50: > 1000 nM
//
STRUCTURE: CCc1cc(C2=CCN(C(=O)N(C)CC)CC2)ccc1N(C)c1cc2c(cn1)ncn2C
IC50: > 1000 nM
//
STRUCTURE: CCc1cc(-c2cccc(C#N)c2)ccc1N(C)c1cc2c(cn1)ncn2C
IC50: 501 to 1000 nM

Please report the recorded IC50 for CCOc1ccc(N(C)c2cc3c(cn2)ncn3C)c(CC)c1 . 501 to 1000 nM

What value of IC50 has been recorded for this entry: CN(c1cc2c(cn1)ncn2C)c1ccccc1OC(F)F > 1000 nM

----------
Target: human JAK2 (Homo sapiens, UniProt O60674)
Construct: catalytic domain (amino acids 808-1132; catalog number PV4210); GST
Sequence (O60674 808-1132): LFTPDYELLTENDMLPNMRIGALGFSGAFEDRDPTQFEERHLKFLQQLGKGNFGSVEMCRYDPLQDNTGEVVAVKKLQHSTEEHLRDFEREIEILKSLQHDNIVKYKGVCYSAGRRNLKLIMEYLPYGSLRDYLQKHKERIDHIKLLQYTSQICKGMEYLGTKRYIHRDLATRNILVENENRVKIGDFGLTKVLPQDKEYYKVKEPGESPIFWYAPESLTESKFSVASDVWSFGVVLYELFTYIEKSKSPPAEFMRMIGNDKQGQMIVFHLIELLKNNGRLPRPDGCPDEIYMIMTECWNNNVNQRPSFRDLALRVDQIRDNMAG
Assay: JAK2 inhibition assay (polyGT substrate / Ulight-JAK1 peptide)
Conditions: recombinant human JAK2 catalytic domain; polyGT or Ulight-JAK1 peptide assay
pIC50: −log10 of the molar value.
PROPERTY: pIC50

Requested read-out: pIC50. Entry: CCc1cc(OC2CCN(S(C)(=O)=O)C2)ccc1N(C)c1cc2c(cn1)ncn2C (stereo not shown) 6.30 to 7.00

----------
Target: human JAK3 (Homo sapiens)
Construct: catalytic domain (amino acids 781-1124; catalog number PV3855)
Assay: JAK3 inhibition assay
Settings: recombinant human JAK3 catalytic domain; polyGT substrate
pIC50: −log10 of the molar value.
Quick reference: pIC50 of the listed items.

// below: answered compounds
COMPOUND: CN(c1cc2c(cn1)ncn2C)c1ccc(C2CN(C(=O)N3CCC3)C2)cc1OC(F)F
PROPERTY: pIC50
VALUE_OBSERVED: < 6.00
--
COMPOUND: Cc1ccc(OCC(C)C)cc1N(C)c1cc2c(cn1)ncn2C
PROPERTY: pIC50
VALUE_OBSERVED: < 6.00
--
COMPOUND: Cc1ccc(OCc2ccc(C#N)nc2)cc1N(C)c1cc2c(cn1)ncn2C
PROPERTY: pIC50
VALUE_OBSERVED: < 6.00
--
COMPOUND: CCc1cn(C2(CC#N)CN(S(C)(=O)=O)C2)nc1N(C)c1cc2c(cn1)ncn2C
PROPERTY: pIC50
VALUE_OBSERVED: < 6.00

For CCc1cc(-c2noc(COC)n2)ccc1N(C)c1cc2c(cn1)ncn2C , what is its reported pIC50? < 6.00

Reported pIC50, compound CCc1cc(-c2cccc(C#N)c2)ccc1N(C)c1cc2c(cn1)ncn2C : ____ 6.00 to 6.30

Return reported pIC50; argument: CN(c1ccc(OC(F)(F)F)cc1)c1cc2c(cn1)ncn2C < 6.00

pIC50 lookup needed for CCc1cc(C2=CCN(C(=O)NC3(C)CC3)CC2)ccc1N(C)c1cc2c(cn1)ncn2C , thanks. 6.30 to 7.00

Record request: pIC50 value, item CCc1cc(C(C#N)N2CCOCC2)ccc1N(C)c1cc2c(cn1)ncn2C (stereo not shown) 7.00 to 11.00

Look up pIC50 for this compound: CCc1cc(-c2cnn(CC#N)c2)ccc1N(C)c1cc2c(cn1)ncn2C 6.30 to 7.00

Recorded pIC50 of Cc1ccc(N(C)c2cc3c(cn2)ncn3C)c(OC(F)F)c1 , please. < 6.00

I'd like to know its pIC50. The compound in question is CCc1cc(CC(=O)N2CC(C)(C)C2)ccc1N(C)c1cc2c(cn1)ncn2C < 6.00

Can you look up the measured pIC50 of CCc1cc(Cn2ccnc2)ccc1N(C)c1cc2c(cn1)ncn2C for me? 6.30 to 7.00

I'd like to know its pIC50. The compound in question is CCc1cc(CN2CCS(=O)(=O)CC2)ccc1N(C)c1cc2c(cn1)ncn2C 6.00 to 6.30

// query pIC50 value for entry CCNC(=O)N1CC=C(c2ccc(N(C)c3cc4c(cn3)ncn4C)c(CC)c2)CC1 6.30 to 7.00

May I ask what pIC50 has been recorded for CCc1cc(C2=CCN(C(=O)Nc3ncns3)CC2)ccc1N(C)c1cc2c(cn1)ncn2C ? 7.00 to 11.00

----------
Target: human JAK3 (Homo sapiens, UniProt P52333)
Construct: catalytic domain (amino acids 781-1124; catalog number PV3855)
Sequence (P52333 781-1124): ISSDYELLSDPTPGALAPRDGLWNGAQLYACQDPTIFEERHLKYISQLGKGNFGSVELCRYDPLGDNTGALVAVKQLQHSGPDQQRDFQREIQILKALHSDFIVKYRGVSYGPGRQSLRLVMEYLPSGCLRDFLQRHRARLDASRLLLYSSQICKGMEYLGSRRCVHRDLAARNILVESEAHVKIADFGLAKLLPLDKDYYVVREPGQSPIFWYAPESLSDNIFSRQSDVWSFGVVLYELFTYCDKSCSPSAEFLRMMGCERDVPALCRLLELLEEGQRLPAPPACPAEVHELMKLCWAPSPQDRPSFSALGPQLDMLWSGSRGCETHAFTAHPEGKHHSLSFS
Experiment: JAK3 inhibition assay
Details: recombinant human JAK3 catalytic domain; polyGT substrate
PROPERTY: IC50

STRUCTURE: CCc1cc(-c2ccc(OC)nc2)ccc1N(C)c1cc2c(cn1)ncn2C
TEST_TARGET: human JAK3 (Homo sapiens, UniProt P52333)
VALUE_OBSERVED: 101 to 500 nM
//
STRUCTURE: CCc1cc(N2CC[C@H](C)C2)ncc1N(C)c1cc2c(cn1)ncn2C
TEST_TARGET: human JAK3 (Homo sapiens, UniProt P52333)
VALUE_OBSERVED: 101 to 500 nM

The record that follows has no IC50 shown yet.
// lookup IC50 | system=human JAK3 (Homo sapiens, UniProt P52333) | key= CN(c1cc2c(cn1)ncn2C)c1ccc(C2CN(CC(N)=O)C2)cc1OC(F)F > 1000 nM

----------
Target: human JAK2 (Homo sapiens)
Construct: catalytic domain (amino acids 808-1132; catalog number PV4210); GST; purchased Invitrogen PV4210
Assay: JAK2 inhibition assay (polyGT substrate / Ulight-JAK1 peptide)
Type: biochemical
Conditions: recombinant human JAK2 catalytic domain; polyGT or Ulight-JAK1 peptide assay
Listed below: IC50 values for each entry.

// worked examples, IC50 included
COMPOUND: CCc1cc(C(=O)N2CCC(OC)CC2)ccc1N(C)c1cc2c(cn1)ncn2C
IC50: > 1000 nM
//
COMPOUND: CCN(c1ccc2oc(C)nc2c1)c1cc2c(cn1)ncn2C
IC50: > 1000 nM
//
COMPOUND: CN(c1cc2c(cn1)ncn2C)c1ccc(C2CN(CC(F)F)C2)cc1OC(F)F
IC50: 101 to 500 nM
//
COMPOUND: CCc1cc(-c2ccc(C#N)nc2)ccc1N(C)c1cc2c(cn1)ncn2C
IC50: 101 to 500 nM
//
COMPOUND: CCc1cc(C(=O)NCCN(C)C)ccc1N(C)c1cc2c(cn1)ncn2C
IC50: > 1000 nM
//
COMPOUND: CCc1cc(O)ccc1N(C)c1cc2c(cn1)ncn2C
IC50: 0.01 to 100 nM
//
COMPOUND: CN(c1cc2c(cn1)ncn2C)c1ccc(C2CN(S(=O)(=O)N3CCCCC3)C2)cc1OC(F)F
IC50: 101 to 500 nM
//
COMPOUND: CCc1cc(C2CN(C(=O)C3(C#N)CC3)C2)ccc1N(C)c1cc2c(cn1)ncn2C
IC50: 501 to 1000 nM
//
COMPOUND: Cc1cc(OCc2cccnc2)ccc1N(C)c1cc2c(cn1)ncn2C
IC50: > 1000 nM
//
COMPOUND: CCc1cc(C(C#N)N2CCC(F)(F)C2)ccc1N(C)c1cc2c(cn1)ncn2C (stereo not shown)
IC50: 0.01 to 100 nM

Sample CCc1ccc(CO)cc1N(C)c1cc2c(cn1)ncn2C — what was its IC50? > 1000 nM

Fill in the blank: the reported IC50 of CCc1cc(C2CN(C(=O)C(F)F)C2)ncc1N(C)c1cc2c(cn1)ncn2C is ____. 101 to 500 nM

# get_value(readout='IC50', item= Cc1cc(C(N)=O)ccc1N(C)c1cc2c(cn1)ncn2C ) > 1000 nM

Report IC50 for CN(c1ccc(OCC2CCCO2)cc1)c1cc2c(cn1)ncn2C (stereo not shown) please. > 1000 nM

Any idea what its IC50 is? The compound is Cc1ccc(OCc2ccc(Cl)cc2)cc1N(C)c1cc2c(cn1)ncn2C > 1000 nM
